Measured bioavailability accompanies every entry in the list below.
- test: Bioavailability in fasted Sprague-Dawley rat at 5 mg/kg, IG measured for 24 hrs
- Format: ADME, organism-based
- setup-conditions: in vivo, po
Expressed in %, but write only the number.

Answered cases to consult:
> print(dat)
                                   compound     test.readout  value.observed
1  NC(=O)[C@@H]1CCN1Cc1ccc2oc(-c3ccccc3F)cc2c1  bioavailability            86.7
2  NC(=O)[C@@H]1C[C@H](F)CN1Cc1ccc2oc(-c3cccc(F)c3)cc2c1  bioavailability             126
3  NC(=O)[C@@H]1CCN1Cc1ccc2oc(-c3cccc(F)c3)cc2c1  bioavailability            56.3
4  NC(=O)[C@@H]1C[C@H](F)CN1Cc1ccc2oc(-c3ccc(F)cc3)cc2c1  bioavailability             150
5  C[C@H](NCc1ccc(OCc2cccc(F)c2)cc1)C(N)=O [SAFINAMIDE]  bioavailability            48.5

query: Field request: bioavailability | item: NC(=O)[C@@H]1CCN1Cc1ccc2oc(-c3ccc(F)cc3)cc2c1
result: 80.9

###

- system-name: Amine oxidase [flavin-containing] A (Homo sapiens)
- Sequence (P21397 whole entry): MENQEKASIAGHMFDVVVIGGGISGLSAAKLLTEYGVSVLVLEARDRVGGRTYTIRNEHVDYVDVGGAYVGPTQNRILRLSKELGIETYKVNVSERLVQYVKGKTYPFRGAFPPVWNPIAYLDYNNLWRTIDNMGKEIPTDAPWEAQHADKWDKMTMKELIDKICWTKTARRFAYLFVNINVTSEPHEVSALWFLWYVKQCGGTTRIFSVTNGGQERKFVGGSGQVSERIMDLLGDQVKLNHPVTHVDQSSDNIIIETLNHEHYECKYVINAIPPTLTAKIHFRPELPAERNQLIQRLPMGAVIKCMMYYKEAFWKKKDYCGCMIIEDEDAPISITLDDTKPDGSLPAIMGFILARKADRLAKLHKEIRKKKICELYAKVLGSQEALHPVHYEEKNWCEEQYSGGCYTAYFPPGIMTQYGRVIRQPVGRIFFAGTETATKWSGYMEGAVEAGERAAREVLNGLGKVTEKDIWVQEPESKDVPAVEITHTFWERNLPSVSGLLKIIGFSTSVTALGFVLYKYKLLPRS
- test: Inhibition of recombinant human MAO-A expressed in Sf9 cells using […] as substrate preincubated for 15 mins followed by substrate addition and measured after 60 mins by luciferin based luminescence analysis
test-readout: IC50 (µM)
Express your answer in µM, writing the number without its unit.

> print(dat)
                               input.smiles  test.readout  value.observed
1  COc1ccccc1-c1cc2cc(CN[C@@H](C)C(N)=O)ccc2o1          IC50            6.21

Turning now to a further record.
query: Would you mind telling me what IC50 value was observed for COc1ccc(-c2cc3cc(CN[C@@H](C)C(N)=O)ccc3o2)cc1 ?
result: 2.78

###

- system-name: CYP2C8 (Homo sapiens)
- Sequence (P10632 whole entry): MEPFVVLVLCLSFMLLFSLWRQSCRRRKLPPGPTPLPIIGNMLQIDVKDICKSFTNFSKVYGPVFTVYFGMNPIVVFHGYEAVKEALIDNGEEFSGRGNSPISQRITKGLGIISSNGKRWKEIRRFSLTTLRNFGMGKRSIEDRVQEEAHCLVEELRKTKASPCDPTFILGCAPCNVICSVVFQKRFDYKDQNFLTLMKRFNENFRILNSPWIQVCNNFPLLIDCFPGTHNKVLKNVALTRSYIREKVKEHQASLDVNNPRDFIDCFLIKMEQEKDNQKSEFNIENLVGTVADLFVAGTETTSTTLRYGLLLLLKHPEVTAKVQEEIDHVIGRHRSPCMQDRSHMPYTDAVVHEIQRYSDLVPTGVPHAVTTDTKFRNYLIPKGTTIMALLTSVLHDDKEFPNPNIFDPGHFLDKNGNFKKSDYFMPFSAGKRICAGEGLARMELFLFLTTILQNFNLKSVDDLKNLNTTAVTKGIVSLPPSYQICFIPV
- test: Inhibition of CYP2C8 in human liver microsomes using amodiaquine as substrate at 10 uM incubated for 45 mins in presence of NADPH by LC-MS/MS analysis relative to control
- Type: ADME, Microsome
- setup-conditions: probe amodiaquine
test-readout: inhibition at 0.75 h, 10 µM

query: Which inhibition at 0.75 h, 10 µM is listed for NC(=O)[C@@H]1C[C@H](F)CN1Cc1ccc2oc(-c3ccc(F)cc3)cc2c1 ?
result: 5.74%

###

Each entry below carries its reported CLint scaled at 1 µM.
- test: Metabolic stability in rat liver microsomes assessed as intrinsic clearance at 1 uM incubated for 60 mins in presence of NADPH by LC-MS/MS analysis
- Type: ADME, Microsome
- setup-conditions: read-out: CLH
Provide the reading as a plain figure in mL/min/kg.

query: Entry under review: C[C@H](NCc1ccc(OCc2cccc(F)c2)cc1)C(N)=O [SAFINAMIDE] . Reported CLint scaled at 1 µM?
result: 38.3

query: Repeat with NC(=O)[C@@H]1C[C@H](F)CN1Cc1ccc2oc(-c3ccc(F)cc3)cc2c1
result: 10.1

###

- test: Protein binding in rat plasma at 1 uM incubated for 5 hrs by LC-MS/MS based rapid equilibrium dialysis method
- Type: ADME, cell-free
- setup-conditions: read-out: PPB (converted)
test-readout: fraction unbound at 5 h, 1 µM
Write the number on its own, no unit after it.

query: Entry under review: NC(=O)[C@@H]1C[C@H](F)CN1Cc1ccc2oc(-c3ccc(F)cc3)cc2c1 . Reported fraction unbound at 5 h, 1 µM?
result: 0.0062

###

Below is a list of entries, each paired with its recorded concentration at 2 h value.
- test: Drug concentration in Sprague-Dawley rat plasma at 5 mg/kg, ip measured after 120 mins by LC-MS/MS analysis
- Type: ADME, organism-based
Your answer should be a plain number; it is taken to be in ng/mL.

> print(dat)
                                   compound  value.observed
1  NC(=O)[C@@H]1C[C@H](F)CN1Cc1ccc2oc(-c3ccc(F)cc3)cc2c1             458

query: Returns the measured concentration at 2 h for the input compound. Input: C[C@H](NCc1ccc(OCc2cccc(F)c2)cc1)C(N)=O [SAFINAMIDE]
result: 144

###

- test: Cmax in fasted Sprague-Dawley rat at 5 mg/kg, IG measured for 24 hrs
- Assay type: ADME, organism-based
- Parameters: dose 5 mg/kg, time 24 hrs, route ig
- setup-conditions: in vivo, po
Rule: Cmax of 200 ng/mL or more gives t; anything lower gives f.

query: Hi, just wondering whether C[C@H](NCc1ccc(OCc2cccc(F)c2)cc1)C(N)=O [SAFINAMIDE] shows Cmax of 200 ng/mL or higher.
result: f

query: Can you handle NC(=O)[C@@H]1CCN1Cc1ccc2oc(-c3cccc(F)c3)cc2c1 next?
result: f

query: What do you get for NC(=O)[C@@H]1C[C@H](F)CN1Cc1ccc2oc(-c3cccc(F)c3)cc2c1 ?
result: t

query: Item: NC(=O)[C@@H]1C[C@H](F)CN1Cc1ccc2oc(-c3ccc(F)cc3)cc2c1
result: t

query: Next molecule up: NC(=O)[C@@H]1CCN1Cc1ccc2oc(-c3ccccc3F)cc2c1
result: f

query: What do you have for NC(=O)[C@@H]1CCN1Cc1ccc2oc(-c3ccc(F)cc3)cc2c1 ?
result: f

query: Now give it for NC(=O)[C@@H]1C[C@H](F)CN1Cc1ccc(OCc2cccc(F)c2)cc1 too.
result: t

###

- test: Cmax in fasted ICR mouse at 5 mg/kg, IG measured for 24 hrs
- Assay type: ADME, organism-based
- Parameters: dose 5 mg/kg, time 24 hrs, route ig
- setup-conditions: in vivo, po
We begin with a simple list: items and their reported Cmax.
Write down the numeric answer in ng/mL and omit the unit.

Example entries begin here.
> print(dat)
                                   molecule  value.observed
1  C[C@H](NCc1ccc(OCc2cccc(F)c2)cc1)C(N)=O [SAFINAMIDE]             755
2  NC(=O)[C@@H]1C[C@H](F)CN1Cc1ccc2oc(-c3ccc(F)cc3)cc2c1             913

query: Look up Cmax for this molecule: NC(=O)[C@@H]1C[C@H](F)CN1Cc1ccc(OCc2cccc(F)c2)cc1
result: 833

###

Parameter Kp at 2 h: see the listing below.
- test: Ratio of drug concentration in Sprague-Dawley brain to plasma at 5 mg/kg, ip measured after 120 mins by LC-MS/MS analysis
- Format: ADME, organism-based
- setup-conditions: rat, read-out: BPR
Field format: numeric only.

> print(dat)
                                   molecule  value.observed
1  NC(=O)[C@@H]1C[C@H](F)CN1Cc1ccc2oc(-c3ccc(F)cc3)cc2c1            15.5

Here's the next entry for you.
query: Consider the molecule shown here: C[C@H](NCc1ccc(OCc2cccc(F)c2)cc1)C(N)=O [SAFINAMIDE] What is its recorded Kp at 2 h?
result: 15.1

###

Form field: pIC50 (one value per entry).
- system-name: UniProt P27338
- Sequence (P27338 whole entry): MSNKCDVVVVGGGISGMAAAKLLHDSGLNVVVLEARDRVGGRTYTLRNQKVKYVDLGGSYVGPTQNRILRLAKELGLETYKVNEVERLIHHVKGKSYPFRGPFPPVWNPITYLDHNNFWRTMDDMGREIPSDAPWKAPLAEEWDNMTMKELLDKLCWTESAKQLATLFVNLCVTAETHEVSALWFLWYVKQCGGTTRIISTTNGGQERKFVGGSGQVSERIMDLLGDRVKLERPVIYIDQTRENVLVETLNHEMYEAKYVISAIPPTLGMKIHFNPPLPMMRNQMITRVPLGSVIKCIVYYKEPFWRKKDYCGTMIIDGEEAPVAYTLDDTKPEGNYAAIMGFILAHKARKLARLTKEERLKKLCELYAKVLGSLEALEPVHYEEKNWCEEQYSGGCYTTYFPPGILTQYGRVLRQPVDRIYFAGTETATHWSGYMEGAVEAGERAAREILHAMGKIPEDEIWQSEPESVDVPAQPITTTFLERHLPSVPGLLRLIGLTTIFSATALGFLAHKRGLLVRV
- test: Inhibition of recombinant human MAO-B expressed in Sf9 cells using p-tyramine as substrate preincubated for 15 mins followed by substrate addition and measured after 60 mins by luciferin based luminescence analysis
Note on units: pIC50 is unitless, being -log10 of a concentration expressed in mol/L.

Field: example entries. Status: answers known.
> print(dat)
                               input.smiles     system.name  test.readout  value.observed
1  NC(=O)[C@@H]1C[C@H](F)CN1Cc1ccc2oc(-c3ccc(F)cc3)cc2c1  UniProt P27338         pIC50            7.43
2  NC(=O)[C@@H]1C[C@H](F)CN1Cc1ccc2oc(-c3cccc(F)c3)cc2c1  UniProt P27338         pIC50            7.26

query: Identify the measured pIC50 of COc1ccc(-c2cc3cc(CN4CC[C@H]4C(N)=O)ccc3o2)cc1 for UniProt P27338.
result: 5.13

query: What do you have for NC(=O)[C@@H]1CCN1Cc1ccc2oc(-c3ccc(F)cc3)cc2c1 ?
result: 7.42

query: For C[C@H](NCc1ccc2oc(-c3ccc(F)cc3)cc2c1)C(N)=O then?
result: 6.02

query: And the next one, COc1cccc(-c2cc3cc(CN[C@@H](C)C(N)=O)ccc3o2)c1 ?
result: 5.34

query: COc1cccc(-c2cc3cc(CN4CC[C@H]4C(N)=O)ccc3o2)c1 ?
result: 6.99

query: Consider next the compound C[C@H](NCc1ccc2oc(-c3ccccc3F)cc2c1)C(N)=O in the same way.
result: 5.30

query: // query: NC(=O)[C@@H]1CCN1Cc1ccc2oc(-c3ccccc3F)cc2c1
result: 7.14

query: Same lookup for NC(=O)[C@@H]1CCN1Cc1ccc2oc(-c3cccc(F)c3)cc2c1 , please.
result: 7.07

query: And for C[C@H](NCc1ccc2oc(-c3cccc(F)c3)cc2c1)C(N)=O ?
result: 5.65

The origin of these recorded values is ChEMBL document CHEMBL5346941.
